Target: Human GPR120 short form (Homo sapiens, UniProt Q5NUL3)
Construct: expressed in transfected cells
Sequence (Q5NUL3 whole entry): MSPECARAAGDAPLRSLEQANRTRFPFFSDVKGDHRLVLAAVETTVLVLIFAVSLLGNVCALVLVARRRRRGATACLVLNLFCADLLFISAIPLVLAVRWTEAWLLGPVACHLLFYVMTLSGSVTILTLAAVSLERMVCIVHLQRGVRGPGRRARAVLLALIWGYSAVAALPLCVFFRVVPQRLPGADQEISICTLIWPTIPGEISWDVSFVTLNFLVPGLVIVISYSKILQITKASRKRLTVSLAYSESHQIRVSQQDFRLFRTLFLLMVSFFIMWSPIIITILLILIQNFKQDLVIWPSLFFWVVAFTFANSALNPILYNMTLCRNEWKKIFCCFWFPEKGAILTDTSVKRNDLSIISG
Test: Human GPR120 calcium flux assay, Procedure Calcium B (4200 cells/well)
Assay type: cell-based
property-label: EC50 (nM)

Cc1c(CCC(=O)O)ccc(OCC2=C(c3ccc(F)cc3F)CCC(F)(F)C2)c1C [Compound 534]: 96

(A) Cc1c(CCC(=O)O)ccc(OCC2=C(c3ccc(Cl)cc3)CC(C(C)C)CC2)c1C (stereo not shown) [Compound 500]
(B) COc1cc(OCC2=C(c3ccc(Cl)cc3)CCC2)ccc1CCC(=O)O [Compound 97]
[ask] // which entry has the larger EC50 value, A or B ? Respond with the label that goes with your answer.
[reply] A
(A: 1530 nM, B: 237 nM)
